Listing of entries alongside the reported IC50.
Target: human Nav1.7 channels stably expressed in HEK 293 cells (Homo sapiens, UniProt Q15858)
Construct: expressed in transfected cells; host or cells: HEK 293
Sequence (Q15858 whole entry): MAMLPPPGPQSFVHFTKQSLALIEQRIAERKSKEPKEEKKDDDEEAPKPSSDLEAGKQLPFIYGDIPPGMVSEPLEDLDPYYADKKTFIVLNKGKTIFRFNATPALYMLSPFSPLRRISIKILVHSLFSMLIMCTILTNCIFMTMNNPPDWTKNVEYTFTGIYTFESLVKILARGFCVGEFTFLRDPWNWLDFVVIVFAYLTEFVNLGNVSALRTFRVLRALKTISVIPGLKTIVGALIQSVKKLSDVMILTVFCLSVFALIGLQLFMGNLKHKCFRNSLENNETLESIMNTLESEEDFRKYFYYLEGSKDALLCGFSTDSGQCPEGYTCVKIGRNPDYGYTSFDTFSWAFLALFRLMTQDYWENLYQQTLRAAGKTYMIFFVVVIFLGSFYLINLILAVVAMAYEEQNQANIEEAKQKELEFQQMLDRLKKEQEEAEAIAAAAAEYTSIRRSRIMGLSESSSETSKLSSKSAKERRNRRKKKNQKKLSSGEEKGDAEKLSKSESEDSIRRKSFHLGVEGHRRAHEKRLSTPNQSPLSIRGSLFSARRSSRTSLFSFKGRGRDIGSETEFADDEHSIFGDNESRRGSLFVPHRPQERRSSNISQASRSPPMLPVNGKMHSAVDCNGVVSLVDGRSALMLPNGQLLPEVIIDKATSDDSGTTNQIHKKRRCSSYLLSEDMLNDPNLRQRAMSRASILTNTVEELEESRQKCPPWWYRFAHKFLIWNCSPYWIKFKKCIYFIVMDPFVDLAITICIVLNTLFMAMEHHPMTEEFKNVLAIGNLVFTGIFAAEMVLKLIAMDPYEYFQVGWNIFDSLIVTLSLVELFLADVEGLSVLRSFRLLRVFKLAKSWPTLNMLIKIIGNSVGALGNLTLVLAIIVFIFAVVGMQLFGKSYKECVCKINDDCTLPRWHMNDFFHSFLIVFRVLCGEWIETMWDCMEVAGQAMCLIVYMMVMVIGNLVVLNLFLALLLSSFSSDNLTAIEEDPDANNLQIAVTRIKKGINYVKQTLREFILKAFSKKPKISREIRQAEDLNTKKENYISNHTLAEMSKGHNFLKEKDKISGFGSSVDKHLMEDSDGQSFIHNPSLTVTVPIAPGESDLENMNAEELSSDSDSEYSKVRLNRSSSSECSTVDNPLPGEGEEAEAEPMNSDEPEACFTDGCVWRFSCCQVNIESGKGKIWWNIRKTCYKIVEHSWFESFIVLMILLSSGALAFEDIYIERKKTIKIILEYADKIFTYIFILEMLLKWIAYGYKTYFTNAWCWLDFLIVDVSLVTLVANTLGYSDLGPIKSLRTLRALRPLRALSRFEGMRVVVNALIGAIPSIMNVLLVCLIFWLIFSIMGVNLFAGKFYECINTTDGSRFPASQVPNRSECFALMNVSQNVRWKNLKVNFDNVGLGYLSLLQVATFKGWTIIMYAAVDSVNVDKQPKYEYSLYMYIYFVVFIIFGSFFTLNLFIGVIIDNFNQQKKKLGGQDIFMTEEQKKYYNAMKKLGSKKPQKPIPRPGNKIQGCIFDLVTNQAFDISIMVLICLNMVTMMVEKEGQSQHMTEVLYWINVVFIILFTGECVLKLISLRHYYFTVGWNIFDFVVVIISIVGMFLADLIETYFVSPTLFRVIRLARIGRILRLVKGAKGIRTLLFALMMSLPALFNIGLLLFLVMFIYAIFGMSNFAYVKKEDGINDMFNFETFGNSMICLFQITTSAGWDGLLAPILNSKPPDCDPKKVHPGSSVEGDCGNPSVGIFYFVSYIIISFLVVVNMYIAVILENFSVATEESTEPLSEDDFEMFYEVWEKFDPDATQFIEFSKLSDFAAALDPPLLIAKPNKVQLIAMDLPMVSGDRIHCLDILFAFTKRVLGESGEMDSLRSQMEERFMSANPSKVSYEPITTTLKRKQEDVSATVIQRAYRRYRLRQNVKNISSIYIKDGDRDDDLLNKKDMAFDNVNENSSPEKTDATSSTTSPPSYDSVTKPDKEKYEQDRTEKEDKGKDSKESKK
Assay: Qube automated patch-clamp assay, inhibition of sodium current
Format: cell-based
Conditions: holding potential −75 mV; max concentration tested 33750 nM; read-out: NaV1.7 (nM); −75 mV

| Compound | IC50 |
| --- | --- |
| Cc1cc(NC[C@H](CC(C)(C)CCN)[C@@H](C)N)c(Cl)cc1S(=O)(=O)Nc1ncns1 | 19 nM |
| C[C@@H](N)C(CNc1cc(F)c(S(=O)(=O)Nc2ncns2)cc1Cl)CC(C)(C)CN (single isomer, unassigned) | 41 nM |
| C[C@@H](N)[C@H](CNc1ncc(S(=O)(=O)Nc2ncns2)cc1C(F)(F)F)CC(C)(C)CCN | 230 nM |
| C[C@@H](N)C(CNc1cc(F)c(S(=O)(=O)Nc2ncns2)cc1Cl)CC1COCCN1 (single isomer, unassigned) [Example 101] | 84 nM |
